Experiment: Metabolic stability: % metabolism after 60 minutes incubation with active liver microsomes
Format: in vitro ADME
Conditions: compound 5 μM, microsomes 1 mg/ml, NADPH-generating system, 60 minutes at 37 degrees Celsius
Protocol: Sub-cellular tissue preparations were made according to Gorrod et al. (Xenobiotica 5:453-462, 1975) by centrifugal separation after mechanical homogenization of tissue. Liver tissue was rinsed in ice-cold 0.1 M Tris-HCl (pH 7.4) buffer to wash excess blood. […] Metabolic stability was expressed as % metabolism of the compound after 60 minutes (equation given as example) of incubation in the presence of active microsomes (E(act))
VALUE_TYPE: % metabolised compound (compounds of present invention) (%)

Example entries and their recorded answers appear below.
| MOLECULE | VALUE_REPORTED |
| --- | --- |
| COCCCCN1CC[C@@H](CNC(=O)c2cc(CC#N)cc3c2OCCCO3)[C@H](O)C1 [compound 184] | 12 |
| N#CCCCN1CC[C@@H](CNC(=O)c2cc(C#N)cc3c2OCCO3)[C@H](O)C1 [compound 246] | 7 |

P: COc1cc2c(c(C(=O)NC[C@@H]3CCN(CCC4OCCO4)C[C@H]3O)c1)OCCCO2 [compound 187]
Q: Cc1cc2c(c(C(=O)NC[C@@H]3CCN(CCCCO)C[C@H]3O)c1)OCCO2 [compound 228]
Prompt: Which of the two items, P and Q , has the greater recorded % metabolised compound (compounds of present invention)? Answer by quoting the chosen item's label.
Response: P
(P: 18%, Q: 6%)

I: Cc1cc2c(c(C(=O)NC[C@@H]3CCN(CCCO)C[C@H]3O)c1)OCCCO2 [compound 168]
II: CCCCN1CC[C@@H](CNC(=O)c2cc(CC#N)cc3c2OCCCO3)[C@H](O)C1 [compound 183]
Prompt: In the pair I and II , the larger recorded % metabolised compound (compounds of present invention) belongs to which? Give the chosen item's label as your response.
Response: II
(II: 10%, I: 4%)

I: COCCCN1CC[C@@H](CNC(=O)c2cc(C)cc3c2OCCCO3)[C@H](O)C1 (single isomer, unassigned) [compound 162]
II: COCCCN1CC[C@@H](CNC(=O)c2cc(C#N)cc3c2OCCCO3)[C@H](O)C1 [compound 158]
III: N#Cc1cc2c(c(C(=O)NC[C@@H]3CCN(CCCO)C[C@H]3O)c1)OCCCO2 [compound 165]
Prompt: Write the entries in order, lowest recorded % metabolised compound (compounds of present invention) first. I would appreciate it if you listed the labels in the requested order.
Response: III, II, I

a: Cc1cc2c(c(C(=O)NC[C@@H]3CCN(CCCCO)C[C@H]3O)c1)OCCCO2 [compound 225]
b: Cc1cc2c(c(C(=O)NC[C@@H]3CCN(CCCC4(C)OCCO4)C[C@H]3O)c1)OCCCO2 [compound 227]
Prompt: % metabolised compound (compounds of present invention) comparison. Which is larger, a or b ? Write the label of whichever entry you select.
Response: b
(b: 24%, a: 14%)

1: CC(=O)CCCN1CC[C@@H](CNC(=O)c2cc(C)cc3c2OCCCO3)[C@H](O)C1 [compound 229]
2: COCCCN1CC[C@@H](CNC(=O)c2cc(C#N)cc3c2OCCCO3)[C@H](O)C1 [compound 202]
Prompt: // returns 1 or 2 , whichever has the lower % metabolised compound (compounds of present invention) Reply briefly: the label of your chosen item.
Response: 2
